# target-entity: nitric oxide synthase (NOS) (Mus musculus, UniProt P29477)
# Sequence (P29477 1-1144): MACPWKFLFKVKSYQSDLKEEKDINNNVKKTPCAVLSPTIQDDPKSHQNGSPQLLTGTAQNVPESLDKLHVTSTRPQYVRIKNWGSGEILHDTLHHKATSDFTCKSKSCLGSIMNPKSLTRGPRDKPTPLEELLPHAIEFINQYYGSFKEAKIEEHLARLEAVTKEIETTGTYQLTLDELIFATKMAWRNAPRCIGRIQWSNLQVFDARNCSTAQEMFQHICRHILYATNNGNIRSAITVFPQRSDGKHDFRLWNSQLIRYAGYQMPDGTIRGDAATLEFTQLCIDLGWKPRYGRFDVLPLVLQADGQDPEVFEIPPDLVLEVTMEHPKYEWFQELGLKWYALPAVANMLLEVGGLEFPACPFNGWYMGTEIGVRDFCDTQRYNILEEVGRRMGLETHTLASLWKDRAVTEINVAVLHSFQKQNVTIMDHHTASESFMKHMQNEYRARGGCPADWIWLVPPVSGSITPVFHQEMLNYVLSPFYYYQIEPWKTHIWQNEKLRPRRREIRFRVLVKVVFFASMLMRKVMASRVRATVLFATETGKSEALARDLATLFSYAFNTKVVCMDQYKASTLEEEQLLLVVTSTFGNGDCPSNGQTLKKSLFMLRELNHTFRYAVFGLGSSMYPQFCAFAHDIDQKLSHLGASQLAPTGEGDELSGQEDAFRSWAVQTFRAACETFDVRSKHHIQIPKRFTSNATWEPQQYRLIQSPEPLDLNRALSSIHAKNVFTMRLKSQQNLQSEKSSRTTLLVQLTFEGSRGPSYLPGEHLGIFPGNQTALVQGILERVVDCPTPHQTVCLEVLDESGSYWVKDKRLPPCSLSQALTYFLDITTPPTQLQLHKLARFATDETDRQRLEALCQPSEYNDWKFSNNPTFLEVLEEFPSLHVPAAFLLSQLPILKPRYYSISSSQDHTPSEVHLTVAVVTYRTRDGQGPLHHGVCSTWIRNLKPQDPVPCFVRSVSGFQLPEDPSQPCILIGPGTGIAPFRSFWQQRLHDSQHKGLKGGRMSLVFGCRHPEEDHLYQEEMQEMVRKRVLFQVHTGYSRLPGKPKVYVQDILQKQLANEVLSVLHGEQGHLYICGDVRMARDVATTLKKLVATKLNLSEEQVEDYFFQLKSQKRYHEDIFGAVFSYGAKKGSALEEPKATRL
# protocol-summary: NOS activity: LPS-induced NO production in murine microglial cells (BV2)
# measurement-parameters: read-out: IC50 (μM) in NOS; LPS-induced NO production in BV2 cells, 1-50 μM test drug; mean ± S.E.M.
Here, each record is paired with measured IC50 data.

Would you please look over these solved cases?
compound	IC50
C=C(CC[C@@H](C)[C@H]1CC[C@H]2C3=C(C(=O)C[C@]12C)[C@@]1(C)CCC(=O)[C@@H](C)[C@@H]1CC3=O)C(C)C(=O)O (stereo partly drawn)	3.6 µM
C=C(CC[C@@H](C)[C@H]1CC[C@H]2C3=C(C(=O)C[C@]12C)[C@@]1(C)CCC(=O)[C@@H](C)[C@@H]1C[C@@H]3O)[C@H](C)C(=O)O	4.2 µM
C=C(CC[C@@H](C)[C@H]1CC[C@H]2C3=C(C(=O)[C@H](O)[C@]12C)[C@@]1(C)CC[C@@H](O)[C@@H](C)[C@@H]1CC3=O)C(C)C(=O)O (stereo partly drawn)	16.2 µM
C=C(CC[C@@H](C)[C@H]1CC[C@H]2C3=C(C(=O)C[C@]12C)[C@@]1(C)CCC(=O)[C@@H](C)[C@@H]1CC3)C(C)C(=O)O (stereo partly drawn)	4.1 µM
COc1cc(C)c(OC)c2c1OCO2	29.1 µM
COc1c(C)c(-c2c(C)c(OC)c3c(c2OC)OCO3)c(OC)c2c1OCO2	16.2 µM
C=C(CC[C@@H](C)[C@H]1CC[C@H]2C3=C(C(=O)C[C@]12C)[C@@]1(C)CC[C@@H](O)[C@@H](C)[C@@H]1CC3=O)C(C)C(=O)O (stereo partly drawn)	9.6 µM
CC(C)[C@@H](C)/C=C/[C@@H](C)[C@H]1CC[C@H]2C3=CC[C@H]4C[C@@H](O)CC[C@]4(C)C3=CC[C@]12C	30.6 µM
C=C(C)C#Cc1c(C)c(OC)c(OC)c2c1OCO2	12.1 µM
CC(C)[C@@H](C)/C=C/[C@@H](C)[C@H]1CC[C@@H]2[C@]1(C)CC[C@H]1[C@]23C=C[C@]2(C[C@@H](O)CC[C@]12C)OO3 [Compound I-22, ergosterol peroxide]	6.3 µM

*Q* What measured IC50 goes with "C=C(C)C#Cc1c(OC)cc(OC)c(OC)c1C" ?
*A* 7.2 µM

*Q* Note, next up: C=C(CC[C@@H](C)[C@H]1CC[C@H]2C3=C(C(=O)C[C@]12C)[C@@]1(C)CCC(=O)[C@@H](C)[C@@H]1CC3=O)C(C)C(=O)OC (stereo partly drawn)
*A* 0.6 µM
